# System: recombinant EphB4 kinase (Homo sapiens)
# Construct: purchased ProQinase GmbH, Freiburg, Germany
# Sequence (P54760 16-987): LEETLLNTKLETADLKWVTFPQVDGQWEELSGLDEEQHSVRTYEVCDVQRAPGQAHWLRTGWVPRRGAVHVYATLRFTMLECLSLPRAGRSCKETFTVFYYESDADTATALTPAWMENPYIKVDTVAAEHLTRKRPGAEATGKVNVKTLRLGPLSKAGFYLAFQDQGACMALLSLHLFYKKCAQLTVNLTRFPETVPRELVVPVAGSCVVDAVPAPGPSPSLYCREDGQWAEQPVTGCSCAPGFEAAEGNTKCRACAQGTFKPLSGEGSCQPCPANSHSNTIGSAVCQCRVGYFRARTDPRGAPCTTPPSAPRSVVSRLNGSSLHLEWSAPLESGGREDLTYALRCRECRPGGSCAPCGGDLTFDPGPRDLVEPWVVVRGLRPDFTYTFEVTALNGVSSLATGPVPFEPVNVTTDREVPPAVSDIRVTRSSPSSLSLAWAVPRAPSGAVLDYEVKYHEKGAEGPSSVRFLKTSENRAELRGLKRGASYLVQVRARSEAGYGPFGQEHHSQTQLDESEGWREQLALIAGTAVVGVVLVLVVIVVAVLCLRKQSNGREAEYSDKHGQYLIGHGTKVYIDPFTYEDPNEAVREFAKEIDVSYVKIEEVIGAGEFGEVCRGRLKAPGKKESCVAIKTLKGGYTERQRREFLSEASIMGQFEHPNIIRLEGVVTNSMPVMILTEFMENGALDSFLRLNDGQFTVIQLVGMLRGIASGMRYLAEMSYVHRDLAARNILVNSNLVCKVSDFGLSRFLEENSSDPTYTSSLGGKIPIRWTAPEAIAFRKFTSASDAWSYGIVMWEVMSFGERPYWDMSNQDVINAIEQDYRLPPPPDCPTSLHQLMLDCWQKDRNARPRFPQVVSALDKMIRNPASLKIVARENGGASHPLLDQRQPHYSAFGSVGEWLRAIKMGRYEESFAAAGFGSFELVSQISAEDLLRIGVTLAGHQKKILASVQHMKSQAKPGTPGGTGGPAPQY
# Procedure summary: Test System for EphB4 (HTRF kinase assay)
# Type: biochemical
# Measurement context: polyGluAlaTyr substrate, 2 μM ATP, HTRF readout, read-out: IC50 of EphB4 kinase inhibition
Metric name: IC50 (nM)
One number for each entry, in nM.

Lookup result for Cc1nc2c(ccc3nccc(Nc4cc(O)ccc4C)c32)s1 ; measured IC50: 270
